# target_of_assay: T1, alpha-s1 casein from Bos taurus
# T1 chain: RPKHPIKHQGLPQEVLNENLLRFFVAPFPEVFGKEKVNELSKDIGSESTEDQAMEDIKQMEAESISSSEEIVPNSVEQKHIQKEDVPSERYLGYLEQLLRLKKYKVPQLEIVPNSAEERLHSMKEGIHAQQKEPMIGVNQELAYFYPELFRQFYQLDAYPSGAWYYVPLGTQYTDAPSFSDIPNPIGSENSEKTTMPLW
readout_label: αs1-I CN, 24 hours, 11° C. (Volume)
Write it as a number; the unit Volume goes unstated.

Data request, read-out αs1-I CN, 24 hours, 11° C., for bovine chymosin B variant #74 (A51V, K221M) (protein) GEVASVPLTNYLDSQYFGKIYLGTPPQEFTVLFDTGSSDFWVPSIYCKSNVCKNHQRFDPRKSSTFQNLGKPLSIHYGTGSMQGILGYDTVTVSNIVDIQQTVGLSTQEPGDVFTYAEFDGILGMAYPSLASEYSIPVFDNMMNRHLVAQDLFSVYMDRNGQESMLTLGAIDPSYYTGSLHWVPVTVQQYWQFTVDSVTISGVVVACEGGCQAILDTGTSMLVGPSSDILNIQQAIGATQNQYGEFDIDCDNLSYMPTVVFEINGKMYPLTPSAYTSQDQGFCTSGFQSENHSQKWILGDVFIREYYSVFDRANNLVGLAKAI
2.47e+07

src = patent US20150140169
